Taken from patent US20260116874A1.

- experiment.summary: Liver microsomes stability, human
- Format: in vitro ADME
- condition.set: 1 μM, Table 3, read-out: Metabolic Stability Half-life, human
// criterion not met strictly below 50 min in half-life at 1 µM; criterion met otherwise

Form field: half-life at 1 µM at least 50 min? Entry: Cc1ncc(S(=O)(=O)Nc2ccc(C)c3c(C#N)c[nH]c23)o1 [Compound 2]
criterion met

API: above_or_equal(metric=half-life at 1 µM, cutoff=50 min) for item Cc1ncc(S(=O)(=O)Nc2ccc(C)c3c(Cl)c[nH]c23)s1 [Compound 20]
criterion not met

Please indicate if the recorded half-life at 1 µM for Cc1ncc(S(=O)(=O)Nc2ccc(C)c3c(C#N)c[nH]c23)s1 [Compound 1] meets or exceeds 50 min.
criterion met

hey, is half-life at 1 µM for this one >= 50 min? Cc1ccc(NS(=O)(=O)c2ccn3ccnc3c2)c2[nH]cc(C#N)c12 [Compound 39]
criterion met

Determine whether measured half-life at 1 µM meets or exceeds 50 min for Cc1cc(S(=O)(=O)Nc2ccc(C)c3c(C#N)c[nH]c23)sn1 [Compound 57]
criterion not met
